Data origin: ChEMBL document CHEMBL5131409

test: Volume of distribution in rat at 3 mg/kg, iv; assay type: ADME, organism-based; details: in vivo
endpoint label: Vd (L/kg)
Number in L/kg, nothing else.

### Prompt Which measured Vd value corresponds to CC(=O)Nc1ccc(-c2ccc(NC[C@@H]3CC34CCN(CC3CCOCC3)CC4)nn2)cc1 ?
### Response 147

---

assay: AUC (0.25 to last) in mouse plasma at 3 mg/kg, ip; format: ADME, organism-based; design: dose 3 mg/kg, route ip
endpoint label: AUC

### Prompt Look at this compound and give its reported AUC. CC(=O)Nc1ccc(-c2ccc(NC[C@@H]3CC34CCN(CC3CCOCC3)CC4)nn2)cc1
### Response 10500 ng·h/mL

---

Below is a list of entries, each paired with its recorded pIC50 value.
target: Cytochrome P450 2D6 (Homo sapiens); test: Inhibition of CYP2D6 in human liver microsomes using cocktail of isoform-specific probe substrate
Sequence (P10635 whole entry, canonical isoform): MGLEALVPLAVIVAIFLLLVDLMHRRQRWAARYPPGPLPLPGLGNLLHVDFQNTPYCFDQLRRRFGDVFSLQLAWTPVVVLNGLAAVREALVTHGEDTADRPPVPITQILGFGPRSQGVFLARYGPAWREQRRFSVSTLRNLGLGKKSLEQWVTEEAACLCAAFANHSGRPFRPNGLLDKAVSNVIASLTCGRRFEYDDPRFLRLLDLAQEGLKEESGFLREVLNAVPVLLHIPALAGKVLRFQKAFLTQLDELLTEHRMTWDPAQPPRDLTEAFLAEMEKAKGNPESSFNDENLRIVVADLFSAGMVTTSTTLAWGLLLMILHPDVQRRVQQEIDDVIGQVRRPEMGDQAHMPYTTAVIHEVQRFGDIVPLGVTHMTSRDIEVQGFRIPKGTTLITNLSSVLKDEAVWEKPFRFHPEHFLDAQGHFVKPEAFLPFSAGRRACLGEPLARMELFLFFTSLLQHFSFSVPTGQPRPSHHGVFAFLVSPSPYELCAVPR
Scale: negative log10 of molar concentration, which is what pIC50 denotes.

For orientation, consider the following solved cases.
Fc1ccc(Cl)c(-c2ccc(NC[C@@H]3CC34CCN(CC3CCOCC3)CC4)nn2)c1; 5.24
c1ccc(-c2ccc(NC[C@@H]3CC34CCN(CC3CCOCC3)CC4)nn2)cc1; 5.60
Fc1cc(F)c(F)c(-c2ccc(NC[C@@H]3CC34CCN(CC3CCOCC3)CC4)nn2)c1; 6.26
Fc1ccc(F)c(-c2ccc(NC[C@@H]3CC34CCN(CC3CCOCC3)CC4)nn2)c1; 5.72

Now turn to the next compound.
### Prompt Requested field: pIC50. Item: Cn1cc2cc(-c3ccc(NC[C@@H]4CC45CCN(CC4CCOCC4)CC5)nn3)ccc2n1
### Response 4.70

---

biological target: Muscarinic acetylcholine receptor M4 (Homo sapiens); assay: Antagonist activity at human muscarinic acetylcholine M4 receptor expressed in CHO cells co-expressing Gqi5 assessed as minimal acetylcholine response by calcium mobilization assay relative to control; type: functional, cell-based; set-up: scale not given: the % may be the effect or the level left; conditions: filed as antagonist
endpoint label: Activity (%)
Give the value in % but do not write % after it.

Fc1cccc(-c2ccc(NC[C@@H]3CC34CCN(CC3CCOCC3)CC4)nn2)c1; 4.2

### Prompt Give its Activity value. Item: Fc1ccc(F)c(-c2ccc(NC[C@@H]3CC34CCN(CC3CCOCC3)CC4)nn2)c1
### Response 3.5

### Prompt # repeat for Fc1cc(F)c(F)c(-c2ccc(NC[C@@H]3CC34CCN(CC3CCOCC3)CC4)nn2)c1
### Response 3

---

Form field: inhibition at 10 µM (one value per entry).
target: hERG (KCNH2) (Homo sapiens); experiment: Inhibition of hERG at 10 uM by patch clamp method relative to control; assay type: toxicity
Sequence (Q12809 whole entry): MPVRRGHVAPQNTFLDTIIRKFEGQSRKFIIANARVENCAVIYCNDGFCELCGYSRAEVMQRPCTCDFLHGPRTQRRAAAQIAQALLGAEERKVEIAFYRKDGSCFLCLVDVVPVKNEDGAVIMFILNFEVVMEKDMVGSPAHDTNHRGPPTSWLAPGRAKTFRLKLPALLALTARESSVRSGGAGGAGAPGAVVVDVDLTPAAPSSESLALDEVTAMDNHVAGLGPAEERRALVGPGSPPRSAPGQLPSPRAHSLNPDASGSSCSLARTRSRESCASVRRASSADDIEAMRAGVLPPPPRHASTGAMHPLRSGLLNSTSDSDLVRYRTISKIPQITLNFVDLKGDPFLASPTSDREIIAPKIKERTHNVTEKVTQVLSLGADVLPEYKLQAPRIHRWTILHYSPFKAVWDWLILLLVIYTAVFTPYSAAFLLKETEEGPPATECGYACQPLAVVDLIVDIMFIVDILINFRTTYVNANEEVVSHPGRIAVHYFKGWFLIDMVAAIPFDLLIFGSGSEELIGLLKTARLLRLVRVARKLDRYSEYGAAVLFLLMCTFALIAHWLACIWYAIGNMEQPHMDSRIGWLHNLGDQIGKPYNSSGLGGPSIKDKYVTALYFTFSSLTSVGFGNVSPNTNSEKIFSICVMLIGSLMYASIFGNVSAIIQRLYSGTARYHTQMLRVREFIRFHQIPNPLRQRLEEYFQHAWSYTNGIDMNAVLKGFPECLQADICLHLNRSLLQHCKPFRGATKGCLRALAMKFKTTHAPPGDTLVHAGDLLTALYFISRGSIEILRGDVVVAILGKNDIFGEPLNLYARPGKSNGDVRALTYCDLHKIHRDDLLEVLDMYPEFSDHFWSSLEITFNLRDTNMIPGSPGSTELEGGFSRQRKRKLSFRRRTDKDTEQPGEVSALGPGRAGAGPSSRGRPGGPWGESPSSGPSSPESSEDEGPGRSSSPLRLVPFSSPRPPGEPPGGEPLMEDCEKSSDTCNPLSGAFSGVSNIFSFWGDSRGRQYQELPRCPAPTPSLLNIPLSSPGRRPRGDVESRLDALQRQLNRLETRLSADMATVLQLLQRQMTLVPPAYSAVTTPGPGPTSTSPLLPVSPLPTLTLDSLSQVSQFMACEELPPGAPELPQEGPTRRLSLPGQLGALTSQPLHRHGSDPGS
Quick reminder: number only, in %, skip the unit.

Fc1cc(F)c(F)c(-c2ccc(NC[C@@H]3CC34CCN(CC3CCOCC3)CC4)nn2)c1; 99

# next compound below
### Prompt // returns reported inhibition at 10 µM for input [2H]C([2H])(C1CCOCC1)N1CCC2(CC1)C[C@H]2CNc1ccc(-c2cc(F)cc(F)c2F)nn1
### Response 98

---

assay: AUC (0 to infinity) in rat at 3 mg/kg, iv; format: ADME, organism-based; parameters: time infinity, dose 3 mg/kg, route iv; conditions: in vivo
endpoint label: AUC(0-inf)

### Prompt AUC(0-inf) for CC(=O)Nc1ccc(-c2ccc(NC[C@@H]3CC34CCN(CC3CCOCC3)CC4)nn2)cc1 ?
### Response 202 ng·h/mL
